Target: Human Prostatic Steroid 5α-Reductase (Homo sapiens)
Construct: Prostatic particles were obtained by differential centrifugation; from tissue; host or cells: frozen human prostates (hyperplastic), 140,000 × g particulate fraction
Sequence (P31213 whole entry): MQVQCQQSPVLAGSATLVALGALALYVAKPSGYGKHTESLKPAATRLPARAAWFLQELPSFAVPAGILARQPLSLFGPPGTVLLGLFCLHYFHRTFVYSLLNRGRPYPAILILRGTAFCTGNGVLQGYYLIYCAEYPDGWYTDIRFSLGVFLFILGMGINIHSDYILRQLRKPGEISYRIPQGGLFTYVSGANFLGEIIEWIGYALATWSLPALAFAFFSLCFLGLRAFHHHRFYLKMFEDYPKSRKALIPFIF
Assay: Inhibition of human steroid 5α-reductase using tissue from hyperplastic human prostates ([14C]-testosterone conversion, Dixon analysis)
Type: biochemical
Conditions: human prostatic particulate, pH 5.0, 37° C., 20 to 30 minutes, competitive inhibition against testosterone assumed; read-out: Ki , app
Result Type: Ki
# answer = value followed by unit

# query: Ki | item CC(C)N(C(=O)[C@H]1CC[C@H]2[C@@H]3CC[C@H]4C=C([PH](=O)O)CC[C@]4(C)[C@H]3CC[C@]12C)C(C)C | system: Human Prostatic Steroid 5α-Reductase (Homo sapiens)
25 nM

Same lookup for CC(C)(C)NC(=O)[C@H]1CC[C@H]2[C@@H]3CC=C4C=C([PH](=O)O)CC[C@]4(C)[C@H]3CC[C@]12C , please.
35 nM

Same lookup for CC(C)N(C(=O)[C@H]1CC[C@H]2[C@@H]3CC=C4C=C(P(C)(=O)O)CC[C@]4(C)[C@H]3CC[C@]12C)C(C)C , please.
55 nM

// below: Ki requested for another compound
# query: Ki | item CC(C)N(C(=O)[C@H]1CC[C@H]2[C@@H]3CC=C4C=C([PH](=O)O)CC[C@]4(C)[C@H]3CC[C@]12C)C(C)C | system: Human Prostatic Steroid 5α-Reductase (Homo sapiens)
7 nM
